Tested on: SK-MEL-5 melanoma
Experiment: NCI tumour cell line growth inhibition, 48 h
QUANTITY KIND: TGI (µM)
One number for each entry, in µM.

# example entries with known answers
Field request: TGI | item: "Cc1ccccc1C1=[N+]([O-])c2ccccc2C1=O"
30.9

Request: "CN(c1cc2ncc(=O)[nH]c2cc1NC(N)=NCc1ccc(Cl)cc1)C1CCCCC1"
15.3

Request: "CC(=O)Nc1ccc(N=C2C(c3ccccc3)=C(SC3=C(c4ccccc4)C(=Nc4ccc(NC(C)=O)cc4)c4ccccc43)c3ccccc32)cc1"
31.3

Request: "CC(=O)O[C@@]12CO[C@@H]1C[C@H](O)[C@@]1(C)C(=O)[C@H](O)C3=C(C)[C@@H](OC(=O)[C@H](O)[C@@H](NC(=O)OC(C)(C)C)c4ccccc4)C[C@@](O)([C@@H](OC(=O)c4ccccc4)[C@H]21)C3(C)C"
17.1

Request: OC1(c2ccc(Cl)cc2)c2c(ccc3c2OCO3)C2=NCCN21 (stereo not given)
32.1

Request: "O=C(NCCCCN(CCCNC(=O)C(F)(F)F)Cc1ccc2ccccc2c1)C(F)(F)F"
48.9

Request: "O=c1cc(-c2ccccc2)oc2cc(O)c(O)c(O)c12"
45.3

Request: "COc1ccc(/C(Cl)=C(/c2ccc(O)cc2)c2ccc(OCCN(C)C)cc2)cc1"
16.9

Consider now this further molecule.
Field request: TGI | item: O=C1c2cccnc2C(=O)C2C3C=CC(C3)C12 (stereo not given)
23.2

FYI, the data here is from PubChem BioAssay (NCI).
